# ASSAY NOTES: yeast display, Sf9 membrane polyspecificity reagent, FACS + sequencing; frameworks hold sequencing errors
ASSAY METRIC: polyreactivity (PSR sort gate)

SEQUENCE DATA	polyreactivity (PSR sort gate)
QVHLVESGGGIVQAGGSLRLSCAASGFTFTQYGMGWYRQAPGKEREFVATIRFSGDNTYYADSVKGRFTISRDNAKNTVYLQMNSLNPEDTAVYYCNADNRAFFVYPVSKRYDYWGQGTQVTVSS	low polyreactivity
QVQLVESGGGLVQAGGSLRLSCAASGFTFDFYAMGWYRQAPGKERELVAVISSSGRTYYADSVKGRFTISRDNAKNTVYLQMNSLKPEDTAVYYCAAKAKRGHTYDYWGQGTQVTVSS	high polyreactivity
QVQLVESGGGLVQAGGSLRLSCAASGSIYGYAMGWYRQAPGKERELVAAISGRGGRTYYADSVKGRFTISRDNAKNTVYLQMNSLKPEDTAVYYCNVQWRYPYHYTVDYWGQGTQVTVSS	high polyreactivity
QVQLVESGGGLVQAGGSLRLSCAASGFIFHYNAMGWYRPAPGKERELVAAITSGDSTDYADSVKGRFTISRDNAKNTVYLQMNSLKREDTAVYYCAAAEGYLSKYENDYWGQGTQVTVSS	low polyreactivity
QVQLVESGGGLVQAGGSLRLSCAASGRIFYHYAMGWYRQAPGKERELVAAITWSGVSTYYADSVKGRFTISRDNAKNTVYLQMNSLKPDDTAVYYCATSSRYGVRRYSRGSWGQGSQVTVSS	high polyreactivity
QVQLVESGGGLVQAGGSLRLSCAASGSIFRYYAMGWYIQAPGKERELVAGITGSTGRTYYADSVKGRFTISRDNAKNTVYLQMNSLKPEDTAVYYCAARSRYYEYDYWGQGTQVTVSS	low polyreactivity
QVQLVESGGGLVQAGGSLRLSCAASGSTFYCYVMGWYRQAPGKERALVAAISSGGGTYYADSVKGRFTISRDNAKNTVYLQMNSLKPEDTAVYYSAADASDGQSWYEDYEYDYWGQGTQVTVSS	low polyreactivity
HVQLQERGGGLVQAGGSLRPSCAARGTISDGVPMGWYRQAPGEERELVATTVLGATTNYADSVKGRFTISRGNAKNTVYLQMNSLNPEETAVYYCAAPLRYDKGFSYWGQGTQVTVSS	low polyreactivity
QVQLVESGGGLVQAGGSLRLSCAASGRILNSYAMGWYRQAPGKEREFVAAIRRSRGSPYYADSVKGRFTISRDNAKNTVYLQMNSLKPEETAVYYCAAGRRYSGSYDYWGQGTQVTVSS	high polyreactivity
QFQLLESGGGLVQAGGSLRLSCAASGFISDVYAMGWYRQAPGKERELDAVITWRGSTYYADSVKGSFTISRDNAKNTVYLQMNSLKPEDTALYYCAAESQGDWAFDYWGQGTQVTVSS	low polyreactivity

Task: Please report the recorded polyreactivity (PSR sort gate) for QVQLVESGGGLVQAGGSLRLSCASSGRTFQVNAMGWYRQAPGKERELVAAISASDGSTYADSVKGRFTISRDNAKNTVYLQMNSLKPEDTAVYYCNKAAYGGHRTSEQVGWVYLYDYWGQGTQVTVSS .
Result: low polyreactivity

Task: Try this sequence next: QVQLVESGGGLVQAGGSLRLSCAASGITFNVLAMGWYRQAPGKEREFVAAISTRDGTTYADSLKGRFTISRDNAKNTVYLQMNSLKPEDTAVYYCAAAYYYDGQQGDFDYWGQGTQVTVSS
Result: low polyreactivity

Task: Try the sequence QVQLVESRGGLVQAGGSLRLSCAASGSTILQYAMGWYRQAPGNERELVAAIRFSTGTTYYADSVKGRFTISRDTANNTVYLQMNSLKPEDTAVYYCAALARTRGRKYGYWGHGTQVTVSS
Result: high polyreactivity

Task: What do we get for QVQLVESVGGLVQAGGSLRLSCAASGRTFYFYAMGWYRQAPGKERELVASITSSGGNTYYADSVKGRFTISRDNAKNTVYLQMNSLKPEDTAVYYCAARWFPWLQWKRYVYWGQGTQVTVSS ?
Result: low polyreactivity

Task: Another sequence to look at: QGQLVESGGGLVQAGGSLRLSCAASGSTFYTNAMGWYRQAPGKERELVAAISGSGGSTYYADSVKGRFTISRDNAKNTVYVQMNSRKPEDTAVYYCAARSRYYYTRFDYWGQGTQVTVSS
Result: low polyreactivity
